- Measured on: UniProt:Q8TDV5
- Sequence (Q8TDV5 1-308 limits assumed): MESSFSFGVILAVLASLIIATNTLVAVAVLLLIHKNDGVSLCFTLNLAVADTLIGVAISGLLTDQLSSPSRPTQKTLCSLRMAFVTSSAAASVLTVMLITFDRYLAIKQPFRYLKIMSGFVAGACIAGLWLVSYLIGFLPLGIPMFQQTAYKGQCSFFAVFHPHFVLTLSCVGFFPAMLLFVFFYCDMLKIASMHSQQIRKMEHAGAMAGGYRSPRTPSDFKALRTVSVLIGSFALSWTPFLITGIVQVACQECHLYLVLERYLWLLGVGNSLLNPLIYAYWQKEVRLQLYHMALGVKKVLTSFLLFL
- Assay details: Measurement of GPR119 signaling (cAMP assay; LANCE kit or HTRF) in HEK293 cells stably transfected with human GPR119
- Applied conditions: agonist-stimulated cAMP in HEK293 cells expressing human GPR119
pEC50: −log10 of the molar value.
Reported pEC50 values follow for various molecules

Input smiles	pEC50
CCc1cnc(N2CCC([C@H]3C[C@H]3COCc3ccc(-c4cncnc4)cc3)CC2)nc1	8.72
COCc1cnc(N2CCC([C@H]3C[C@H]3COCc3cc(F)c(S(C)(=O)=O)c(F)c3)CC2)nc1	8.35
CCCc1cnc(N2CCC([C@H]3C[C@H]3COCc3ccc(S(=O)(=O)CCO)cn3)CC2)nc1	8.00
CS(=O)(=O)c1ccc(COC[C@@H]2C[C@@H]2C2CCN(c3ncc(Cl)cn3)CC2)cc1F	9.40
CCc1cnc(N2CCC([C@H]3C[C@H]3COCc3ccc(-c4cccnn4)cc3F)CC2)nc1	10.00
CCc1cnc(N2CCC([C@H]3C[C@H]3COCc3ccc(S(C)(=O)=O)cc3)CC2)nc1	9.13
CCc1noc(N2CCC([C@H]3C[C@H]3COCc3ccc(S(C)(=O)=O)cc3)CC2)n1	8.55
CC(C)c1noc(N2CCC([C@H]3C[C@H]3COCc3ccc(CC(=O)N(C)C)cc3F)CC2)n1	8.80
CCc1cnc(N2CCC([C@H]3C[C@H]3COCc3ccc(-c4ncno4)cc3)CC2)nc1	8.26
CCS(=O)(=O)c1ccc(COC[C@@H]2C[C@@H]2C2CCN(c3nc(C4CCC4)no3)CC2)cc1	9.10

Taken from patent US9006228B2.
